Recorded viability, T/C, one value per entry.
Tested on: T-47D spheroids with HUVEC/MSC, viability
Assay: Anticancer human tumor T-47D cell line growth inhibition [PI3K];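 further: spheroids exposed to agents for seven days before reading; percent of DMSO vehicle control luminescence so 100% = untreated growth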
Details: second compound 1 µM; first compound 0.316 µM; active compounds read low
endpoint.name: viability, T/C (%)

C#Cc1c(F)ccc2cc(O)cc(-c3ncc4c(N5CC6CCC(C5)N6)nc(OCC56CCCN5CC(F)C6)nc4c3F)c12 (stereo not given) + Cc1nc(NC(=O)N2CCCC2C(N)=O)sc1-c1ccnc(C(C)(C)C(F)(F)F)c1 : 69.5
C[C@@H](NC(=O)c1ncnc(N)c1Cl)c1ncc(C(=O)Nc2cc(C(F)(F)F)c(Cl)cn2)s1 + Cc1nc(NC(=O)N2CCCC2C(N)=O)sc1-c1ccnc(C(C)(C)C(F)(F)F)c1 : 90.4
CC1(C)CCC(CN2CCN(c3ccc(C(=O)NS(=O)(=O)c4ccc(NCC5CCOCC5)c([N+](=O)[O-])c4)c(Oc4cnc5[nH]ccc5c4)c3)CC2)=C(c2ccc(Cl)cc2)C1 + COc1c(OCCCN2CCOCC2)ccc2c3n(c(=NC(=O)c4cnc(N)nc4)nc12)CCN3 : 6.92
C#Cc1c(F)ccc2cc(O)cc(-c3ncc4c(N5CC6CCC(C5)N6)nc(OCC56CCCN5CC(F)C6)nc4c3F)c12 (stereo not given) + CC(Nc1ccc2c(c1)OCCn1cc(N3C(=O)OCC3C(F)F)nc1-2)C(N)=O : 61.2
CCCS(=O)(=O)Nc1ccc(F)c(C(=O)c2c[nH]c3ncc(-c4ccc(Cl)cc4)cc23)c1F + CC(Nc1ccc2c(c1)OCCn1cc(N3C(=O)OCC3C(F)F)nc1-2)C(N)=O : 69.4
CC(C)NCC(C(=O)N1CCN(c2ncnc3c2C(C)CC3O)CC1)c1ccc(Cl)cc1 (stereo not given) + CC(Nc1ccc2c(c1)OCCn1cc(N3C(=O)OCC3C(F)F)nc1-2)C(N)=O : 52.2
CCN1CCN(Cc2ccc(Nc3ncc(F)c(-c4cc(F)c5nc(C)n(C(C)C)c5c4)n3)nc2)CC1 + CC(Nc1ncnc2nc[nH]c12)c1cc2cccc(Cl)c2c(=O)n1-c1ccccc1 : 89.7
CNC(=O)c1ccc(N2C(=S)N(c3ccc(C#N)c(C(F)(F)F)c3)C(=O)C2(C)C)cc1F + CC(Nc1ncnc2nc[nH]c12)c1cc2cccc(Cl)c2c(=O)n1-c1ccccc1 : 78.1
CC(Cn1ccc(-c2ccc(C#N)c(Cl)c2)n1)NC(=O)c1cc(C(C)O)[nH]n1 (stereo not given) + CC(Nc1ncnc2nc[nH]c12)c1cc2cccc(Cl)c2c(=O)n1-c1ccccc1 : 92.9
CC1(C)CCC(Nc2ncc(C(F)(F)F)c(-c3c[nH]c4c(P(C)(C)=O)c(C#N)ccc34)n2)CN1 (stereo not given) + CC(Nc1ccc2c(c1)OCCn1cc(N3C(=O)OCC3C(F)F)nc1-2)C(N)=O : 29.7

----------
System: T-47D spheroids with HUVEC/MSC, viability
Test: Anticancer human tumor T-47D cell line growth inhibition [PI3K];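 further: spheroids exposed to agents for seven days before reading; percent of DMSO vehicle control luminescence so 100% = untreated growth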
Settings: second compound 0.1 µM; first compound 0.1 µM; active compounds read low
Criterion: viability, T/C strictly less than 80%. Met: yes (1). Not met: no (0).

CNC(=O)c1ccc(N2C(=S)N(c3ccc(C#N)c(C(F)(F)F)c3)C(=O)C2(C)C)cc1F + CC(Nc1ncnc2nc[nH]c12)c1cc2cccc(Cl)c2c(=O)n1-c1ccccc1 : no (0)
CC(=O)c1c(C)c2cnc(Nc3ccc(N4CCNCC4)cn3)nc2n(C2CCCC2)c1=O + CC(Nc1ccc2c(c1)OCCn1cc(N3C(=O)OCC3C(F)F)nc1-2)C(N)=O : yes (1)
CCCS(=O)(=O)Nc1ccc(F)c(C(=O)c2c[nH]c3ncc(-c4ccc(Cl)cc4)cc23)c1F + CC(Nc1ncnc2nc[nH]c12)c1cc2cccc(Cl)c2c(=O)n1-c1ccccc1 : no (0)
CCN1CCN(Cc2ccc(Nc3ncc(F)c(-c4cc(F)c5nc(C)n(C(C)C)c5c4)n3)nc2)CC1 + COc1c(OCCCN2CCOCC2)ccc2c3n(c(=NC(=O)c4cnc(N)nc4)nc12)CCN3 : yes (1)
CC1(C)CCC(Nc2ncc(C(F)(F)F)c(-c3c[nH]c4c(P(C)(C)=O)c(C#N)ccc34)n2)CN1 (configuration not stated) + CC(Nc1ncnc2nc[nH]c12)c1cc2cccc(Cl)c2c(=O)n1-c1ccccc1 : yes (1)
CCCS(=O)(=O)Nc1ccc(F)c(C(=O)c2c[nH]c3ncc(-c4ccc(Cl)cc4)cc23)c1F + CC(Nc1ccc2c(c1)OCCn1cc(N3C(=O)OCC3C(F)F)nc1-2)C(N)=O : no (0)
Cn1nccc1Nc1nccc(-c2ccn(C(CO)c3ccc(Cl)c(F)c3)c(=O)c2)n1 (configuration not stated) + CC(Nc1ccc2c(c1)OCCn1cc(N3C(=O)OCC3C(F)F)nc1-2)C(N)=O : no (0)
Cn1ncnc1[C@H]1c2n[nH]c(=O)c3cc(F)cc(c23)N[C@@H]1c1ccc(F)cc1 + Cc1nc(NC(=O)N2CCCC2C(N)=O)sc1-c1ccnc(C(C)(C)C(F)(F)F)c1 : no (0)
Cn1ncc(Cl)c1-c1cc(C(=O)NC(CN)Cc2cccc(F)c2)sc1Cl (configuration not stated) + CC(Nc1ccc2c(c1)OCCn1cc(N3C(=O)OCC3C(F)F)nc1-2)C(N)=O : no (0)
CCN1CCN(Cc2ccc(Nc3ncc(F)c(-c4cc(F)c5nc(C)n(C(C)C)c5c4)n3)nc2)CC1 + Cc1nc(NC(=O)N2CCCC2C(N)=O)sc1-c1ccnc(C(C)(C)C(F)(F)F)c1 : yes (1)
